Recorded pIC50 values (E. coli DHFR (dihydrofolate reductase) (Escherichia coli, UniProt P0ABQ4)) are given below.
A value of pIC50 is the negative decimal logarithm of a concentration given in moles per litre.

Take a look at these entries with their results.
# test_smiles, experimental_system, pIC50
measured = [
    ("N#CC(=Cc1ccc(Cl)cc1)C(=O)Nc1ccc(S(=O)(=O)NC(=N)N)cc1", "E. coli DHFR (dihydrofolate reductase) (Escherichia coli, UniProt P0ABQ4)", 5.26),
    ("Cc1cc(C)n(-c2ccc(S(=O)(=O)NC(=N)N)cc2)c(=O)c1C#N", "E. coli DHFR (dihydrofolate reductase) (Escherichia coli, UniProt P0ABQ4)", 4.91),
    ("COc1ccc(/C=C(\\C#N)C(=O)Nc2ccc(S(=O)(=O)NC(=N)N)cc2)cc1O", "E. coli DHFR (dihydrofolate reductase) (Escherichia coli, UniProt P0ABQ4)", 5.36),
]

// next entry
## Input Identify measured pIC50 associated with "N#Cc1c(-c2ccc(Cl)cc2)c(C#N)c(=O)n(-c2ccc(S(=O)(=O)NC(=N)N)cc2)c1N"
## Output 5.26
